System: 598228-144-R-J1-PDC complex spheroid viability
Assay: Anticancer human tumor 598228-144-R-J1-PDC patient-derived serous endometrial adenocarcinoma cell line growth inhibition [GQUAD]
Settings: second compound 3.16 µM; first compound 0.1 µM; active compounds read low
Please respond with true when measured viability, T/C is strictly beneath 60%, and with false in all other cases.

>  <compound>
CC(C)(O)C1CCC(Nc2ccc3ncc(-c4cccc(C(F)(F)F)c4)n3n2)CC1 (stereo not given) + CN(C)c1ccc(Nc2c3ccc(NC(=O)CCN4CCCC4)cc3nc3cc(NC(=O)CCN4CCCC4)ccc23)cc1

>  <label>
false

$$$$
>  <compound>
CCCS(=O)(=O)Nc1ccc(F)c(C(=O)c2c[nH]c3ncc(-c4ccc(Cl)cc4)cc23)c1F + CN(C)c1ccc(Nc2c3ccc(NC(=O)CCN4CCCC4)cc3nc3cc(NC(=O)CCN4CCCC4)ccc23)cc1

>  <label>
false

$$$$
>  <compound>
COc1cc(C2c3cc4c(cc3C(OC3OC5COC(C)OC5C(O)C3O)C3COC(=O)C23)OCO4)cc(OC)c1O (stereo not given) + Cc1[nH]c2ccc(F)cc2c1-c1nc2c3cccnc3c3ncccc3c2[nH]1

>  <label>
true

$$$$
>  <compound>
O=C(c1cc(Cc2n[nH]c(=O)c3ccccc23)ccc1F)N1CCN(C(=O)C2CC2)CC1 + Cc1[nH]c2ccc(F)cc2c1-c1nc2c3cccnc3c3ncccc3c2[nH]1

>  <label>
true

$$$$

----------
Tested on: 598228-144-R-J1-PDC complex spheroid viability
Experiment: Anticancer human tumor 598228-144-R-J1-PDC cell line growth inhibition [GQUAD];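 also: spheroids exposed to the agents for one week before reading; percent of vehicle DMSO control viability so 100% = untreated growth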
Details: second compound 0.1 µM; first compound 0.0999 µM; active compounds read low
Please respond with true (1) when measured viability, T/C is strictly beneath 30%, and with false (0) in all other cases.

>  <compound>
Cn1ncnc1[C@H]1c2n[nH]c(=O)c3cc(F)cc(c23)N[C@@H]1c1ccc(F)cc1 + CN(C)c1ccc(Nc2c3ccc(NC(=O)CCN4CCCC4)cc3nc3cc(NC(=O)CCN4CCCC4)ccc23)cc1

>  <study.target>
598228-144-R-J1-PDC complex spheroid viability

>  <label>
false (0)

$$$$
>  <compound>
Cc1[nH]c2ccccc2c1CCNCc1ccc(/C=C/C(=O)NO)cc1 + Cc1cnc(CNC(=O)c2c(=O)c3ccc(N4CCCN(C)CC4)nc3n3c2sc2ccccc23)cn1

>  <study.target>
598228-144-R-J1-PDC complex spheroid viability

>  <label>
true (1)

$$$$
>  <compound>
CC[C@@]1(O)C(=O)OCc2c1cc1n(c2=O)Cc2cc3c(CN(C)C)c(O)ccc3nc2-1 + CN(C)c1ccc(Nc2c3ccc(NC(=O)CCN4CCCC4)cc3nc3cc(NC(=O)CCN4CCCC4)ccc23)cc1

>  <study.target>
598228-144-R-J1-PDC complex spheroid viability

>  <label>
false (0)

$$$$
>  <compound>
CCc1c2c(nc3ccc(O)cc13)-c1cc3c(c(=O)n1C2)COC(=O)[C@]3(O)CC + CN(C)c1ccc(Nc2c3ccc(NC(=O)CCN4CCCC4)cc3nc3cc(NC(=O)CCN4CCCC4)ccc23)cc1

>  <study.target>
598228-144-R-J1-PDC complex spheroid viability

>  <label>
true (1)

$$$$
>  <compound>
CCc1c2c(nc3ccc(O)cc13)-c1cc3c(c(=O)n1C2)COC(=O)[C@]3(O)CC + Cc1cnc(CNC(=O)c2c(=O)c3ccc(N4CCCN(C)CC4)nc3n3c2sc2ccccc23)cn1

>  <study.target>
598228-144-R-J1-PDC complex spheroid viability

>  <label>
true (1)

$$$$
>  <compound>
Cn1ncnc1[C@H]1c2n[nH]c(=O)c3cc(F)cc(c23)N[C@@H]1c1ccc(F)cc1 + Cc1cnc(CNC(=O)c2c(=O)c3ccc(N4CCCN(C)CC4)nc3n3c2sc2ccccc23)cn1

>  <study.target>
598228-144-R-J1-PDC complex spheroid viability

>  <label>
false (0)

$$$$
>  <compound>
CC[C@@]1(O)C(=O)OCc2c1cc1n(c2=O)Cc2cc3c(CN(C)C)c(O)ccc3nc2-1 + Cc1cnc(CNC(=O)c2c(=O)c3ccc(N4CCCN(C)CC4)nc3n3c2sc2ccccc23)cn1

>  <study.target>
598228-144-R-J1-PDC complex spheroid viability

>  <label>
false (0)

$$$$
>  <compound>
Cc1[nH]c2ccccc2c1CCNCc1ccc(/C=C/C(=O)NO)cc1 + CN(C)c1ccc(Nc2c3ccc(NC(=O)CCN4CCCC4)cc3nc3cc(NC(=O)CCN4CCCC4)ccc23)cc1

>  <study.target>
598228-144-R-J1-PDC complex spheroid viability

>  <label>
true (1)

$$$$
>  <compound>
Cc1[nH]c2ccccc2c1CCNCc1ccc(/C=C/C(=O)NO)cc1 + Cc1[nH]c2ccc(F)cc2c1-c1nc2c3cccnc3c3ncccc3c2[nH]1

>  <study.target>
598228-144-R-J1-PDC complex spheroid viability

>  <label>
false (0)

$$$$
>  <compound>
Cn1ncnc1[C@H]1c2n[nH]c(=O)c3cc(F)cc(c23)N[C@@H]1c1ccc(F)cc1 + Cc1[nH]c2ccc(F)cc2c1-c1nc2c3cccnc3c3ncccc3c2[nH]1

>  <study.target>
598228-144-R-J1-PDC complex spheroid viability

>  <label>
false (0)

$$$$
>  <compound>
CC[C@@]1(O)C(=O)OCc2c1cc1n(c2=O)Cc2cc3c(CN(C)C)c(O)ccc3nc2-1 + Cc1[nH]c2ccc(F)cc2c1-c1nc2c3cccnc3c3ncccc3c2[nH]1

>  <study.target>
598228-144-R-J1-PDC complex spheroid viability

>  <label>
false (0)

$$$$
>  <compound>
CCc1c2c(nc3ccc(O)cc13)-c1cc3c(c(=O)n1C2)COC(=O)[C@]3(O)CC + Cc1[nH]c2ccc(F)cc2c1-c1nc2c3cccnc3c3ncccc3c2[nH]1

>  <study.target>
598228-144-R-J1-PDC complex spheroid viability

>  <label>
false (0)

$$$$

----------
Tested on: 598228-144-R-J1-PDC complex spheroid viability
Experiment: Anticancer human tumor 598228-144-R-J1-PDC cell line growth inhibition [GQUAD]; active = viability on the fitted dose curve at most 10% of control; inactive = the rest;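 also: spheroids exposed to the agents for one week before reading; percent of vehicle DMSO control viability so 100% = untreated growth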
Details: second compound 0.1 µM; first compound 3.16 µM
Classes used: active, inactive

>  <compound>
C=CC(=O)N1CCN(c2nc(=O)n(-c3c(C)ccnc3C(C)C)c3nc(-c4c(O)cccc4F)c(F)cc23)C(C)C1 (stereo unspecified) + CN(C)c1ccc(Nc2c3ccc(NC(=O)CCN4CCCC4)cc3nc3cc(NC(=O)CCN4CCCC4)ccc23)cc1

>  <label>
inactive

$$$$
>  <compound>
O=c1[nH]cc(F)c(=O)[nH]1 + Cc1cnc(CNC(=O)c2c(=O)c3ccc(N4CCCN(C)CC4)nc3n3c2sc2ccccc23)cn1

>  <label>
inactive

$$$$
>  <compound>
CC(C)(O)C1CCC(Nc2ccc3ncc(-c4cccc(C(F)(F)F)c4)n3n2)CC1 (stereo unspecified) + Cc1[nH]c2ccc(F)cc2c1-c1nc2c3cccnc3c3ncccc3c2[nH]1

>  <label>
inactive

$$$$
>  <compound>
COc1cccc2c1C(=O)c1c(O)c3c(c(O)c1C2=O)CC(O)(C(=O)CO)CC3OC1CC(N)C(O)C(C)O1 (stereo unspecified) + CN(C)c1ccc(Nc2c3ccc(NC(=O)CCN4CCCC4)cc3nc3cc(NC(=O)CCN4CCCC4)ccc23)cc1

>  <label>
active

$$$$
>  <compound>
CC1COCCN1c1cc(C2(S(C)(=N)=O)CC2)nc(-c2ccnc3[nH]ccc23)n1 (stereo unspecified) + CN(C)c1ccc(Nc2c3ccc(NC(=O)CCN4CCCC4)cc3nc3cc(NC(=O)CCN4CCCC4)ccc23)cc1

>  <label>
inactive

$$$$
>  <compound>
CC1COCCN1c1cc(-c2ccnn2C)c2ccnc(-c3ccn[nH]3)c2n1 (stereo unspecified) + Cc1[nH]c2ccc(F)cc2c1-c1nc2c3cccnc3c3ncccc3c2[nH]1

>  <label>
inactive

$$$$

----------
Tested on: 598228-144-R-J1-PDC complex spheroid viability
Experiment: Anticancer human tumor 598228-144-R-J1-PDC cell line growth inhibition [GQUAD];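 also: spheroids exposed to the agents for one week before reading; percent of vehicle DMSO control viability so 100% = untreated growth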
Conditions: second compound 3.16 µM; first compound 0.000999 µM; active compounds read low
viability, T/C by entry:

>  <compound>
CCc1c2c(nc3ccc(O)cc13)-c1cc3c(c(=O)n1C2)COC(=O)[C@]3(O)CC + Cc1[nH]c2ccc(F)cc2c1-c1nc2c3cccnc3c3ncccc3c2[nH]1

>  <viability, T/C, %>
40.6

$$$$
>  <compound>
Cc1[nH]c2ccccc2c1CCNCc1ccc(/C=C/C(=O)NO)cc1 + Cc1[nH]c2ccc(F)cc2c1-c1nc2c3cccnc3c3ncccc3c2[nH]1

>  <viability, T/C, %>
32.2

$$$$
>  <compound>
CC[C@@]1(O)C(=O)OCc2c1cc1n(c2=O)Cc2cc3c(CN(C)C)c(O)ccc3nc2-1 + CN(C)c1ccc(Nc2c3ccc(NC(=O)CCN4CCCC4)cc3nc3cc(NC(=O)CCN4CCCC4)ccc23)cc1

>  <viability, T/C, %>
97.8

$$$$
>  <compound>
Cn1ncnc1[C@H]1c2n[nH]c(=O)c3cc(F)cc(c23)N[C@@H]1c1ccc(F)cc1 + Cc1[nH]c2ccc(F)cc2c1-c1nc2c3cccnc3c3ncccc3c2[nH]1

>  <viability, T/C, %>
33.1

$$$$
